# study.target: CooD, tip adhesin of CS1 fimbriae on wild type ETEC strain WS1974A (Escherichia coli (ETEC) strain WS1974A)
# assay.remarks: cell-based or functional assay
Task for the reader: assign each of the following binders its reported MIC in HAI.

Per the records, this binder ( anti-CfaE mouse mAb P8D10 (antibody, V domains shown, also called full length P8D10 mAb) VH: QIQLVQSGPELKKPGETVKISCKASGYTFTNYGMNWVKQAPGKGLKWMGWINTYTGQSTYADDFKGRFAFSLETSASTAHLQISNLKNEDAATYFCARMEYGNYENALDYWGQGTSVTVSS VL: DIVMTQSHKFMSTSIGDRVSITCKASQDVSTAVVWYQQKPGHSPKLLIYSASYRYTGVPDRFTGSGSGTDFTFTISSVQAEDLAVYYCLQHFSTPRTFGGGTNLEIK ) has MIC in HAI equal to > 250 µg/mL

Briefly, MIC in HAI measured for anti-CsbD mouse mAb P9A5 (antibody, V domains shown, Isotype n.d) VH: EVQLQQFGAEVVKPGASVKISCKASGYTFTDYNIDWVKQSHGESLEWIGDISPNSEGTTYNQKFKGQATLTIDKSSTTAYMELRSLTSEDSAVYYCARGSGIWNGLDYWGQGTSVTVSS VL: DIVMTQSHKFMSTSVGDRVSITCKASQDVSTAVAWYQQKPGQSPQLLIYSSSYRYVGVPDRFTGSGSGTDFTFTISSVQAEDLAVYYCHQHYSLPYTFGGGTKLEIK : 4 µg/mL

Recorded MIC in HAI (binder anti-CotD mouse mAb P6B8 (antibody, V domains shown) VH: QVTLKESGPGILQPSQTLSLTCSFSGFSLSTSGMGVGWIRQPSGKGLEWLSHIWWDDEKRYNPALKSRLTISKDTSSNQVFLKIASVDTADTATYYCARIGDRSGHAGFVYWGQGTLVTVSA VL: DIKMTQSPSSMYASLGERVTITCKASQDINSYLSWFQQKPGKSPKTLIYRANRLVDGVPSRFSGSGSGQDYSLTISSLEYEDMGTYYCLQYDEFPYTFGGGTKLEIK ): > 250 µg/mL

Source listed as patent US20230192824A1.
